The listing below reports Ki for compounds tested on Sodium- and chloride-dependent GABA transporter 1 (Mus musculus).

Compound: O=C(O)[C@H](O)[C@H]1CCCN1CCC=C(c1ccccc1)c1ccccc1 (racemic)
Assayed Target: Sodium- and chloride-dependent GABA transporter 1 (Mus musculus)
Ki / µM: 3.89
--
Compound: Cc1ccsc1C(=CCCN1CCC[C@@H](C(=O)O)C1)c1sccc1C
Assayed Target: Sodium- and chloride-dependent GABA transporter 1 (Mus musculus)
Ki / µM: 0.0372
--
Compound: Cc1ccsc1C(=CCCN1CCC[C@@H]1[C@@H](N)C(=O)O)c1sccc1C (racemic)
Assayed Target: Sodium- and chloride-dependent GABA transporter 1 (Mus musculus)
Ki / µM: 17.4
--
Compound: Cc1ccsc1C(=CCCN1CCC[C@@H]1[C@@H](O)C(=O)O)c1sccc1C (racemic)
Assayed Target: Sodium- and chloride-dependent GABA transporter 1 (Mus musculus)
Ki / µM: 1.07
--
Compound: Cc1ccsc1C(=CCCN1CCC[C@@H]1[C@H](N)C(=O)O)c1sccc1C (racemic)
Assayed Target: Sodium- and chloride-dependent GABA transporter 1 (Mus musculus)
Ki / µM: 37.2
